Tested on: rat Monoamine Oxidase, MAO-A, Central (MAOAC), gene 29253
testSummary: NVS_ENZ_rMAOAC: NovaScreen (NVS) Enzymatic Assay for rat Monoamine Oxidase, MAO-A, Central (MAOAC) (AID 2283243);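 note: potency refers to inhibition seen as signal drop below DMSO baseline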
Active and inactive are the calls of the source. Rule for the calls: active = hit-call score of the fitted dose curve at least 0.9, where 1 is the maximum; inconclusive = response in the unintended direction; inactive = score below 0.9.
Just give me one of these, please: active, inactive

## Task Look up the recorded call for COC(=O)c1ccccc1C(=O)OC in this test.
## Result inactive

## Task How about O=C(Nc1ccccc1)Nc1ccnc(Cl)c1 ?
## Result active

## Task How about CON(C)C(=O)Nc1ccc(Cl)c(Cl)c1 ?
## Result active

## Task How about Fc1ccc(Oc2ccnc3cc(Cl)cc(Cl)c23)cc1 ?
## Result inactive

## Task How about Oc1ccccc1-c1ccccc1 ?
## Result active

## Task How about CC1COC(Cn2cncn2)(c2ccc(Oc3ccc(Cl)cc3)cc2Cl)O1 (configuration not stated) ?
## Result active

## Task How about Cc1ccc(-c2c(Cl)nc(C#N)n2S(=O)(=O)N(C)C)cc1 ?
## Result active
